Reported Fold over baseline values follow for various compounds
# System: modified version of the GPR119 receptor (94% identity to human receptor)
# EXPERIMENT DESCRIPTION: cAMP production assay (LANCE cAMP kit, TR-FRET) in HEK-293 cells
# Format: cell-based
# CONDITION NOTES: increase in cAMP relative to basal levels; agonist activity if 1.5-fold or greater
Structures can show the parent of a compound that is named as a salt.
Number only, please.

CC(C)(C)c1nsc(N2CCC(N3CC[C@H](Nc4ccc(S(C)(=O)=O)cc4F)C3=O)CC2)n1 : 3.2
CC(C)c1nsc(N2CCC(N3CC[C@H](Nc4cc(Cl)c(S(C)(=O)=O)cc4F)C3=O)CC2)n1 : 4.0
CC(C)c1nsc(N2CCC(N3CCC(Cc4ccc(S(C)(=O)=O)cc4)C3=O)CC2)n1 (stereo not drawn) : 2.8

Q: I am curious: what Fold over baseline value has been reported for `CC(C)Cc1nsc(N2CCC(N3CC[C@H](Oc4ccc(S(C)(=O)=O)cc4F)C3=O)CC2)n1` ?
A: 3.4

Q: May I ask what Fold over baseline has been recorded for `CC(C)c1nsc(N2CCC(N3CC[C@@H](Nc4ccc(S(=O)(=O)C5CC5)cc4F)C3=O)CC2)n1` ?
A: 3.4

Q: Fill in the blank: the reported Fold over baseline of CCS(=O)(=O)c1ccc(NC2CCN(C3CCN(c4nc(C(C)C)ns4)CC3)C2=O)cc1C (stereo not drawn) is ____.
A: 2.4

Q: So what does the record say about Fold over baseline for `Cc1cc(O[C@H]2CCN(C3CCN(c4nc(C(C)C)ns4)CC3)C2=O)c(F)cc1Br` ?
A: 2.8

Q: Fill in the blank: the reported Fold over baseline of CC(C)c1nsc(N2CCC(N3CCC(Oc4ccc(C(=O)N(C)CCN)cc4F)C3=O)CC2)n1 (stereo not drawn) is ____.
A: 2.8

Q: Can you share its Fold over baseline? I mean this compound: CC(C)c1nsc(N2CCC(N3CCC(Oc4ccc(S(=O)(=O)C(C)C)cc4F)C3=O)CC2)n1 (stereo not drawn)
A: 3.5

Q: Could you share which Fold over baseline value was measured for CC(C)c1nsc(N2CCC(N3CCC(Oc4ccc(S(=O)(=O)C5CC5)cc4F)C3=O)CC2)n1 (stereo not drawn) [Example 46, trifluoroacetate] ?
A: 4.7

Q: Which value of Fold over baseline has been reported for `CC(C)c1nsc(N2CCC(N3CC[C@@H](Nc4ccc(S(C)(=O)=O)cc4F)C3=O)CC2)n1` in the records?
A: 3.1

These entries and their values trace back to patent US20140256756A1.
